- System: OVCAR-4
- ASSAY OVERVIEW: NCI tumour cell line growth inhibition, 48 h
The source made the active and inactive calls. Rule as the data show it: active = GI50 up to about 1.1 µM and inactive = higher.
Task for the reader: assign each of the following compounds its reported GI50.

Solved cases below.
Query: Determine its reported GI50: COc1ccc(C2C3=C(COC3=O)OC(C)(C)Oc3cc4c(cc32)OCO4)cc1 (stereo not given)
Reply: 33.9 µM (inactive)

Query: Determine its reported GI50: O=CC(O)C(O)C(O)C(O)COC(=O)NCCCCC(=O)C(F)(F)C(F)(F)C(F)(F)C(F)(F)C(F)(F)C(F)(F)C(F)(F)F (stereo not given)
Reply: 51.8 µM (inactive)

Query: Determine its reported GI50: "O=c1[nH]c2cc([N+](=O)[O-])c(N/N=C/c3ccc(Cl)cc3Cl)c([N+](=O)[O-])c2[nH]1"
Reply: 13.6 µM (inactive)

Query: Determine its reported GI50: "O=c1c2ccccc2nc(-c2ccccc2)n1NC(=S)Nc1ccc(Cl)cc1"
Reply: 74.3 µM (inactive)

Query: Determine its reported GI50: "N#Cc1c2ccccc2cn1-c1ccc(F)cc1"
Reply: 8.73 µM (inactive)

Query: Determine its reported GI50: "Cc1cc([N+](=O)[O-])ccc1Nc1cccc(Cl)c1C"
Reply: 16.5 µM (inactive)

Query: Determine its reported GI50: "COc1ccccc1-n1c(N)c2c(C)c(-c3ccccc3)[nH]c2nc1=S"
Reply: > 100 µM (inactive)

Query: Determine its reported GI50: "CN1CN(c2ccccc2)C2(CCNCC2)C1=O"
Reply: > 100 µM (inactive)

Batch: GI50 for all items listed.
1. COc1ccc([N+](=O)[O-])c2c(NCCCN(C)C)ccnc12
2. Cc1cc2c(c3nocc13)C(=O)c1ccccc1C2=O

Reply:
["1.51 µM (inactive)", "> 100 µM (inactive)"]
